Values from patent US20220411517A1

target: T1, hIL-1RAP(1-367)_F-chLys_Avi (human, biotinylated (Avi tag) in SPR and ELISA binning; unlabeled in SET); assay: ELISA binning; competitor: coated CAN04 FabCys-AviHis; 1.5 nM biotinylated human IL-1RAcP (AG-12210) pre-incubated with the titrated Fab; captured IL-1RAcP detected with streptavidin-AP
T1 construct: also called human IL-1RAcP (AG-12210)
Consider the following binders and their measured IC50 (read off the curve) readings.

Recorded results for 2 binders are shown here.
Binder	IC50 (read off the curve)
Y024149_h_FabCys-AviH (Fab, V domains shown, Disulphide-linked Fab with Avi and His tags; also called Y024149 in FabCys-AviHis format) VH: EVQLVESGGGLVQPGGSLRLSCAASGGTFGGSAMHWVRQAPGKGLVWVSRILTYGGIATYAESVKGRFTISRDNAKNTLYLQMNSLRAEDTAVYYCARGSSEYPKFDIWGQGTLVTVSS VL: DIQMTQSPSTLSASVGDRVTITCRASQSISSWLAWYQQKPGKAPKLLIYDASSLESGVPSRFSGSGSGTEFTLTISSLQPEDFATYYCHQLLIYPHTFGQGTKVEIKR	~1 nM
1A05_rbh_FabCys-AviH (Fab, V domains shown, Tested as disulphide-linked Fab with Avi and His tags; also called 1A05 in FabCys-AviHis format; 1A05 (R001032)) VH: LEQSGGGAEGGLVKPGGSLELCCKASGFSLSTSYWRCWVRQAPGKGLEWIGCIYAGSGDVTYYANWVNGRFTLSRDIDQSTGCLQLNSLTAADTAMYYCASGVGFGYFNLWGQGTLVTVSS VL: ALVMTQTPSPVSAAVGGTVTINCQASEDIYSNLAWFQQKPGQPPKLLIYDASTLASGVPSRFSGSGSGTEFTLTISGLQSDDAATYYCLGVYTHISADNAFGGGTEVVVKR	~1 nM

What value of measured IC50 (read off the curve) is listed for Y024148_h_FabCys-AviH (Fab, V domains shown, Disulphide-linked Fab with Avi and His tags; also called Y024148 in FabCys-AviHis format) VH: EVQLVESGGGLVQPGGSLRLSCAASGGTIGGSAVHWVRQAPGKGLVWVSRILTYSSTTQYAESVKGRFTISRDNAKNTLYLQMNSLRAEDTAVYYCARGSSEYPKFDIWGQGTLVTVSS VL: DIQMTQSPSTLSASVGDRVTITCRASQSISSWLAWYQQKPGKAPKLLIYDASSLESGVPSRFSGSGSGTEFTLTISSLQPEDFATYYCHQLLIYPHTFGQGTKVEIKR ?
~1 nM
